src = patent US9290478B2

Exercise: state measured IC50 for each of the compounds provided.
tested.target: FGFR3 (h) (Homo sapiens)
Sequence (P22607 23-806): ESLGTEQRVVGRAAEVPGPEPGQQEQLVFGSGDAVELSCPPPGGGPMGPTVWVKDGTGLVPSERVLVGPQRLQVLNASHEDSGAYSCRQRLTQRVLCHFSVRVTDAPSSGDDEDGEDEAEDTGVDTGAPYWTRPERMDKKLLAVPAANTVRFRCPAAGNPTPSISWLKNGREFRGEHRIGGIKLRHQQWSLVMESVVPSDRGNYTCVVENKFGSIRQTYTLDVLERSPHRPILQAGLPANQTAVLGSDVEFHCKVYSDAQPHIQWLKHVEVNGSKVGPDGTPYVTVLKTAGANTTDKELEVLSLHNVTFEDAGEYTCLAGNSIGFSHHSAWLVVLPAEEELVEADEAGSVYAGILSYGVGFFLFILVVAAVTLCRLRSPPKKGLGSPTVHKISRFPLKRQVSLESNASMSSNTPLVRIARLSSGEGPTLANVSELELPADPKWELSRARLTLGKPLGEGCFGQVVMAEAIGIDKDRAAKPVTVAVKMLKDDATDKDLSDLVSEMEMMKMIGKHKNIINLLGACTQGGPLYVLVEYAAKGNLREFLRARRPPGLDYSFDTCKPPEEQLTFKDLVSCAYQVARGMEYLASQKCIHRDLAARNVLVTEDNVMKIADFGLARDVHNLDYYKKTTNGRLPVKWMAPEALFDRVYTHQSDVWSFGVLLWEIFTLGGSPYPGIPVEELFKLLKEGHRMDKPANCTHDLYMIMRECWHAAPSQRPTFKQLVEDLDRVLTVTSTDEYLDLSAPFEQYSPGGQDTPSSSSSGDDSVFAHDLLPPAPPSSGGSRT
assay.name: FGFR3 (enzymatic assay), TR-FRET
Format: biochemical
test.context: 25 μM ATP; read-out: FGFR3 pIC50 (converted)
State just the number; it will be interpreted in nM.

Measured IC50, COc1cc(OC)cc(C(CCCN)c2ccc3ncc(-c4cnn(C)c4)nc3c2)c1.Cl (stereo not drawn) : 269

Measured IC50, COc1cc(OC)cc(C(CCNC(C)C)c2ccc3ncc(-c4cnn(C)c4)nc3c2)c1.Cl (stereo not drawn) : 35.5

Measured IC50, `COc1cc(OC)cc(C2(c3ccc4ncc(-c5cnn(C)c5)nc4c3)CC2)c1` : 43.7

Measured IC50, COc1cc(OC)cc(C(CCN(C)C)c2ccc3ncc(-c4cnn(C)c4)nc3c2)c1.Cl (stereo not drawn) : 67.6

Measured IC50, COc1cc(OC)cc(C(CCNC(C)C)c2ccc3ncc(-c4cnn(C)c4)nc3c2)c1 (single isomer, unassigned) [Compound 19a] : 21.4

Measured IC50, COc1cc(OC)cc(C(NCCNC(C)C)c2ccc3ncc(-c4cnn(C)c4)nc3c2)c1.Cl (single isomer, unassigned) [Compound 24] : 257

Measured IC50, COc1cc(OC)cc(C(CCN)c2ccc3ncc(-c4cnn(C)c4)nc3c2)c1.Cl (stereo not drawn) : 61.7

Measured IC50, `COc1cc(OC)cc(/C(=C\CNCC(F)(F)F)c2ccc3ncc(-c4cnn(C)c4)nc3c2)c1` : 4.68

Measured IC50, COc1cc(OC)cc(C(CC#N)c2ccc3ncc(-c4cnn(C)c4)nc3c2)c1 (stereo not drawn) : 43.7

Measured IC50, COc1cc(OC)cc(C(CC(C)(O)CNC(C)C)c2ccc3ncc(-c4cnn(C)c4)nc3c2)c1.Cl (stereo not drawn) : 708

Measured IC50, COc1cc(OC)cc(C(CCNCC(F)(F)F)c2ccc3ncc(-c4cnn(C)c4)nc3c2)c1.Cl (stereo not drawn) : 138

Measured IC50, `COc1cc(OC)cc(C(=O)c2ccc3ncc(-c4cnn(C)c4)nc3c2)c1` : 66.1

====

tested.target: Ba/F3-Flt3-transfected cells (Homo sapiens, UniProt P36888, cells depend on it, form not given)
Construct: BAF3-FLT3 (MIN IL3) pIC50; other: minus IL3
Sequence (P36888 1-993): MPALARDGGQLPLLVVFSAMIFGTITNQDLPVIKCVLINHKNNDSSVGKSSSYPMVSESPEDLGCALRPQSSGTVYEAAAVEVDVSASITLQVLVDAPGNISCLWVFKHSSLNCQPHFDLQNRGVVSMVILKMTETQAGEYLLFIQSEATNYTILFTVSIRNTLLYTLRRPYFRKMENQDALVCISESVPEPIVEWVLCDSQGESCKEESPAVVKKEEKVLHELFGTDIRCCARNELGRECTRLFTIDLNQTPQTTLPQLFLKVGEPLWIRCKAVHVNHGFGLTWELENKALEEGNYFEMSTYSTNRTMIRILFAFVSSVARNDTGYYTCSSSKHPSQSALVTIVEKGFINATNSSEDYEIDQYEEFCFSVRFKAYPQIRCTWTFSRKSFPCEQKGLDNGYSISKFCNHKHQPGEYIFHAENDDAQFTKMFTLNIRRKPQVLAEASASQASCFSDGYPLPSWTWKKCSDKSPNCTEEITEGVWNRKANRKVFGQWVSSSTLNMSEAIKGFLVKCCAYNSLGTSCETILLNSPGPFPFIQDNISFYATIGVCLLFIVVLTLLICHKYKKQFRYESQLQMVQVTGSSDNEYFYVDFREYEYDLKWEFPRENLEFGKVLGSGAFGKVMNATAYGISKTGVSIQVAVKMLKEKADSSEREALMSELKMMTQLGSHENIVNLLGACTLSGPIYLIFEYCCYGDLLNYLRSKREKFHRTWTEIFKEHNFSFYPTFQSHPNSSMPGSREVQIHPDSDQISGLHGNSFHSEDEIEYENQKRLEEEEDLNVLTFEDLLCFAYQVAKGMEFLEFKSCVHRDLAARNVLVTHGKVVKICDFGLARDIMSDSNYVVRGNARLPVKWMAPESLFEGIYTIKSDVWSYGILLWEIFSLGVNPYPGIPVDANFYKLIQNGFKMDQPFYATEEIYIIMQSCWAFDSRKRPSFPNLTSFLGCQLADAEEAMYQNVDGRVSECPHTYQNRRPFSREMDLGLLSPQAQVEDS
assay.name: Ba/F3-Flt3 (minus IL3 or plus IL3) cellular proliferation assay
Format: cell-based
test.context: minus IL3
Exercise: state measured BAF3-FLT3 (MIN IL3) pIC50 for each of the molecules provided.

Measured BAF3-FLT3 (MIN IL3) pIC50, CNCC(O)(c1cc(OC)cc(OC)c1)c1ccc2ncc(-c3cnn(C)c3)nc2c1.Cl (single isomer, unassigned) [Compound 37] : <5

Measured BAF3-FLT3 (MIN IL3) pIC50, COc1cc(OC)cc(C(CCNC(C)C)c2ccc3ncc(-c4cnn(C)c4)nc3c2)c1.Cl (stereo not drawn) : <5

Measured BAF3-FLT3 (MIN IL3) pIC50, `COc1cc(OC)cc(/C(=C/CNC(C)C)c2ccc3ncc(-c4cnn(C)c4)nc3c2)c1` : ~5.05

Measured BAF3-FLT3 (MIN IL3) pIC50, CNCC(O)(c1cc(OC)cc(OC)c1)c1ccc2ncc(-c3cnn(C)c3)nc2c1.Cl (single isomer, unassigned) [Compound 38] : <5

Measured BAF3-FLT3 (MIN IL3) pIC50, `COc1cc(OC)cc(/C(=C/CN(C)C)c2ccc3ncc(-c4cnn(C)c4)nc3c2)c1` : <5

Measured BAF3-FLT3 (MIN IL3) pIC50, COc1cc(OC)cc(C(CCO)c2ccc3ncc(-c4cnn(C)c4)nc3c2)c1 (stereo not drawn) : <5
